ASSAY COMMENT: DPPH radical scavenging activity (RSA) assay
Assay type: biochemical
ASSAY SETUP: 15 min in the dark at room temperature, 515 nm; mean ± SD (n = 3); read-out: DPPH radical scavenging activities (IC50)
REPORTED ENDPOINT: IC50 (mM)
Form entry: value (mM) — number only.

O=C1O[C@@H]2[C@H](O)COC23O[C@@H](c2ccc(O)cc2)[C@H](c2cc(O)cc4c2[C@@H](c2cc(O)cc(O)c2)[C@H](c2ccc(O)cc2)O4)[C@@]13O (some centres unmarked)    4.21
Oc1ccc([C@H]2c3c(O)cc(O)cc3[C@H]3c4c(cc(O)cc4[C@@H]2[C@H]2c4cc(O)cc5c4[C@H](c4cc(O)cc(O)c4[C@@H]2c2ccc(O)cc2)[C@@H](c2ccc(O)cc2)O5)O[C@@H]3c2ccc(O)cc2)cc1 [Compound 6, (−)-hopeaphenol]    2.78
Oc1ccc([C@@H]2c3c(O)cc(O)cc3[C@@H]3c4c(cc(O)c5c4[C@@H]2[C@H](c2ccc(O)cc2)[C@H]5c2cc(O)cc4c2[C@@H](c2cc(O)cc(O)c2)[C@H](c2ccc(O)cc2)O4)O[C@H]3c2ccc(O)cc2)cc1    0.84
Oc1ccc([C@H]2Oc3cc(O)cc4c3[C@@H]2c2cc(O)cc3c2[C@@H](c2cc(O)cc5c2[C@@H]4[C@H](c2ccc(O)cc2)O5)[C@H](c2ccc(O)cc2)O3)cc1 [Compound 3, (+)-α-viniferin]    6.29

Now look at this one.
I have this compound here, Oc1ccc([C@@H]2c3c(O)cc(O)cc3[C@@H]3c4c(cc(O)cc4[C@@H]2O)O[C@H]3c2ccc(O)cc2)cc1 (relative stereo) , and I need its recorded IC50.
10.1

Reference source for all entries: paper PMC6268933
